target: Autotaxin (Homo sapiens); assay: Inhibition of 6x-histidine-tagged human recombinant ATX expressed in HEK293 cells assessed as choline release using lysophosphatidylcholine as substrate after 4 hrs by choline release assay
Property name: log10(IC50) (log10 of the value in µM)
Give log10 of IC50, with IC50 taken in µM.

Please review the entries below; each comes with its answer.
Report log10(IC50), nothing else, for this compound: CN1C(=O)N(Cc2ccc(F)cc2)C(=O)/C1=C\c1ccc(OCc2ccc(B(O)O)cc2)cc1 -2.28

Quote log10(IC50) reported for O=C1C/C(=C\c2ccc(OCc3ccc(B(O)O)cc3)cc2)C(=O)N1Cc1ccc(F)cc1 please. -2.14

Give the value of log10(IC50) reported for the following: O=C1[C@@H]2Cc3ccc(OCc4ccc(B(O)O)cc4)cc3CN2C(=O)N1Cc1ccc(F)cc1 -1.26

In one line, give reported log10(IC50) of the entry O=c1sc(Cc2ccc(OCc3ccc(B(O)O)cc3)cc2)cn1Cc1ccc(F)cc1 . -0.17

Answer with reported log10(IC50) of O=C1S/C(=C\c2ccc(NCc3ccc(B(O)O)cc3)cc2)C(=O)N1Cc1ccc(F)cc1 -2.08

---
Report measured log10(IC50); entry is O=C(Nc1ccc(/C=C2\SC(=O)N(Cc3ccc(F)cc3)C2=O)cc1)c1ccc(B(O)O)cc1 -2.00

Consider the compound O=C1SC(Cc2ccc(OCc3ccc(B(O)O)cc3)cc2)C(=O)N1Cc1ccc(F)cc1 (centres undefined) . State its measured log10(IC50). -1.60

Give a short answer stating reported log10(IC50) for O=C1[C@H]2Cc3ccc(OCc4ccc(B(O)O)cc4)cc3CN2C(=O)N1Cc1ccc(F)cc1 . -1.23
